Consider the following sequences; for each one, report its phosphorylation enrichment.
# TARGET_OF_ASSAY: Hck (UniProt P08631)
# Sequence (P08631 whole entry, looked up): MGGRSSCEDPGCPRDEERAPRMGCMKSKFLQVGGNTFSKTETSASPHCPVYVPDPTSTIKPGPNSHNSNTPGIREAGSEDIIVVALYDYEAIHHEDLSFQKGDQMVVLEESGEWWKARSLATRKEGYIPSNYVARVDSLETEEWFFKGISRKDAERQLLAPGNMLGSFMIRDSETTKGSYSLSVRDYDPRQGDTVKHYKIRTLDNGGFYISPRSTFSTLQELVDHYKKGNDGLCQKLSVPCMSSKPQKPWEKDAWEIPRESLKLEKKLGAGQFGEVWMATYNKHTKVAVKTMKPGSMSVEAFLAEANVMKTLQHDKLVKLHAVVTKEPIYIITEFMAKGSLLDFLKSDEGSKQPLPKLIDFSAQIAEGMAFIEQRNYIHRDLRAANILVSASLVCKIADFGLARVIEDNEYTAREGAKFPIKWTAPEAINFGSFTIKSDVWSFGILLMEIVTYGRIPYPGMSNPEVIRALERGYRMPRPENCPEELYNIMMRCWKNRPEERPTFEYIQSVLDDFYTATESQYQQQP
# EXPERIMENT: phosphorylation enrichment, bacterial display (enrichment ratio); higher = better substrate or ligand; peptides without Tyr show the background;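 further: 11-residue human phosphosite peptides and single-mutation variants displayed on the E. coli surface, counted by deep sequencing, each peptide's frequency after selection divided by its frequency in the unselected input library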;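 further: frequency after pTyr selection over input frequency; kinase dosed for 20-30% of maximal phosphorylation in three min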
Give bare numbers.

Recorded phosphorylation enrichment, per entry:
[[record]]
sequence_data = "NRSSLYLVAGP [KIAA1614_Y1083]"
target_of_assay = "Hck (UniProt P08631)"
endpoint = "phosphorylation enrichment"
reported_value = 0.619

[[record]]
sequence_data = "DDKQPYEKKAA [HMGB1_Y144]"
target_of_assay = "Hck (UniProt P08631)"
endpoint = "phosphorylation enrichment"
reported_value = 0.536

[[record]]
sequence_data = "RRAKGYPIDLY [ITGB2_Y125]"
target_of_assay = "Hck (UniProt P08631)"
endpoint = "phosphorylation enrichment"
reported_value = 1.18

[[record]]
sequence_data = "VDSNPYSRLVA [UBA5_Y53_M57V]"
target_of_assay = "Hck (UniProt P08631)"
endpoint = "phosphorylation enrichment"
reported_value = 1.21


Ask | Sample CHSDDYVHISI [TSC1_Y406_L411I] — what was its phosphorylation enrichment?
Reply | 0.573
